System: 945468-187-T-J3-PDC spheroids with HUVEC/MSC, viability;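 further: spheroids exposed to agents for 7 days before viability read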
Experiment: Anticancer human tumor 945468-187-T-J3-PDC patient-derived rectal carcinoma cell line growth inhibition [PI3K]
Details: curve of first compound; second compound 0.316 µM
pIC50: −log10 of the molar value.
readout: pIC50

{"columns": ["compound", "value.observed"],
 "data": [
  ["CCCS(=O)(=O)Nc1ccc(F)c(C(=O)c2c[nH]c3ncc(-c4ccc(Cl)cc4)cc23)c1F + COc1c(OCCCN2CCOCC2)ccc2c3n(c(=NC(=O)c4cnc(N)nc4)nc12)CCN3", "> 7.50"],
  ["C=CC(=O)N1CCN(c2nc(=O)n(-c3c(C)ccnc3C(C)C)c3nc(-c4c(O)cccc4F)c(F)cc23)C(C)C1 (stereo not given) + COc1c(OCCCN2CCOCC2)ccc2c3n(c(=NC(=O)c4cnc(N)nc4)nc12)CCN3", "> 7.50"],
  ["CC(=O)c1c(C)c2cnc(Nc3ccc(N4CCNCC4)cn3)nc2n(C2CCCC2)c1=O + Cc1nc(NC(=O)N2CCCC2C(N)=O)sc1-c1ccnc(C(C)(C)C(F)(F)F)c1", "< 7.00"],
  ["CNC(=O)c1ccc(N2C(=S)N(c3ccc(C#N)c(C(F)(F)F)c3)C(=O)C2(C)C)cc1F + Cc1nc(NC(=O)N2CCCC2C(N)=O)sc1-c1ccnc(C(C)(C)C(F)(F)F)c1", "< 5.00"],
  ["Cn1ncc(Cl)c1-c1cc(C(=O)NC(CN)Cc2cccc(F)c2)sc1Cl (stereo not given) + Cc1nc(NC(=O)N2CCCC2C(N)=O)sc1-c1ccnc(C(C)(C)C(F)(F)F)c1", 5.71]
]}
